Target: HLA-A1101 (Homo sapiens, UniProt P04439, A114D/D185E/E176A/F33Y/L180Q/S129P/T187R)
Construct: expressed in transfected cells; host or cells: HMy2.CIR
Assay: cell-based
Format: binding
Conditions: HLA-A1101 HMy2.CIR cells; competitor peptide 15μM; 24 hours; flow cytometry; read-out: 15μM Inhibition (%)
Residues, ends and D or L forms follow the SMILES beside them.

COMPOUND	inhibition at 15 µM (%)
CSCC[C@H](NC(=O)[C@@H](N)CCSC)C(=O)N[C@@H](Cc1c[nH]c2ccccc12)C(=O)N[C@@H](Cc1ccc(O)cc1)C(=O)N[C@@H](Cc1c[nH]c2ccccc12)C(=O)NCC(=O)N1CCC[C@H]1C(=O)N[C@@H](CO)C(=O)N[C@@H](CC(C)C)C(=O)O [Epitope P72]	14.7
CC(C)C[C@H](NC(=O)[C@H](Cc1ccc(O)cc1)NC(=O)[C@H](CCC(=O)O)NC(=O)[C@H](CC(C)C)NC(=O)[C@@H](NC(=O)[C@@H](NC(=O)[C@@H](N)CCC(=O)O)[C@@H](C)O)C(C)C)C(=O)N[C@H](C(=O)N[C@@H](CO)C(=O)N[C@H](C(=O)O)C(C)C)C(C)C [Epitope P118] (H-ETVLEYLVSV-OH; N-terminus and C-terminus assumed)	14.6
CC(C)C[C@H](NC(=O)[C@H](CO)NC(=O)[C@H](Cc1ccccc1)NC(=O)[C@H](Cc1ccccc1)NC(=O)CNC(=O)[C@H](C)NC(=O)[C@H](CCC(N)=O)NC(=O)[C@@H](N)CC(C)C)C(=O)N[C@H](C(=O)N[C@@H](CCCCN)C(=O)O)[C@@H](C)O [Epitope P103] (H-LQAGFFSLTK-OH; N-terminus and C-terminus assumed)	89.4

----------
Molecular target: HLA-A0201 (Homo sapiens, UniProt P04439, D140Y/D185E/D98H/E176V/E277Q/G131W/G231S/I119V/I121R/I166T/I218V/L300P/L318F/N151K/N90K/P208A/P217A/Q86G/Q94H/R138H/R169H/T345S)
Construct: expressed in transfected cells; host or cells: HMy2.CIR
Experiment: cell-based
Format: binding
Conditions: HLA-A0201 HMy2.CIR cells; competitor peptide 5μM; 24 hours; flow cytometry; read-out: 5μM Inhibition (%)
Residues, ends and D or L forms follow the SMILES beside them.
# Lookup of reported inhibition at 5 µM keyed by entry

COMPOUND	OUTPUT_UNIT	inhibition at 5 µM
CC(C)C[C@H](NC(=O)[C@@H](NC(=O)[C@@H](N)CO)[C@@H](C)O)C(=O)N1CCC[C@H]1C(=O)N[C@@H](CCC(=O)O)C(=O)N[C@H](C(=O)N[C@H](C(=O)N[C@H](C(=O)N[C@H](C(=O)N[C@@H](CCCNC(=N)N)C(=O)O)C(C)C)C(C)C)[C@@H](C)O)[C@@H](C)O [Epitope P42]	%	6.2
CC[C@H](C)[C@H](N)C(=O)N[C@@H](CC(C)C)C(=O)N[C@@H](CS)C(=O)N[C@@H](Cc1c[nH]c2ccccc12)C(=O)NCC(=O)N[C@@H](CCC(=O)O)C(=O)N[C@@H](CC(C)C)C(=O)N[C@@H](CCSC)C(=O)N[C@@H](CC(N)=O)C(=O)N[C@@H](CC(C)C)C(=O)O [Epitope P74] (H-ILCWGELMNL-OH; N-terminus and C-terminus assumed)	%	33.1
CC[C@H](C)[C@H](NC(=O)[C@H](CC(C)C)NC(=O)[C@H](CCCCN)NC(=O)[C@H](C)NC(=O)CNC(=O)[C@H](CO)NC(=O)[C@H](CCCNC(=N)N)NC(=O)[C@H](CO)NC(=O)[C@@H](N)CCCNC(=N)N)C(=O)O [Epitope P89] (H-RSRSGAKLI-OH; N-terminus and C-terminus assumed)	%	25.8
CC[C@H](C)[C@H](NC(=O)[C@H](CO)NC(=O)[C@@H]1CCCN1C(=O)[C@H](Cc1ccccc1)NC(=O)[C@H](Cc1ccccc1)NC(=O)[C@H](CC(=O)O)NC(=O)[C@H](CO)NC(=O)[C@@H]1CCCN1C(=O)[C@H](CC(C)C)NC(=O)[C@@H](N)Cc1ccccc1)C(=O)O [Epitope P31]	%	79
CC(C)C[C@H](NC(=O)[C@H](Cc1ccccc1)NC(=O)[C@H](Cc1ccccc1)NC(=O)CNC(=O)[C@H](C)NC(=O)[C@@H](N)CCC(N)=O)C(=O)N[C@@H](CC(C)C)C(=O)N[C@H](C(=O)N[C@@H](CCCNC(=N)N)C(=O)O)[C@@H](C)O [Epitope P41] (H-QAGFFLLTR-OH; N-terminus and C-terminus assumed)	%	5
CC(C)C[C@H](NC(=O)[C@@H](NC(=O)[C@H](CCC(N)=O)NC(=O)[C@H](Cc1c[nH]cn1)NC(=O)[C@H](C)NC(=O)[C@H](CC(N)=O)NC(=O)[C@@H](NC(=O)[C@@H](N)[C@@H](C)O)C(C)C)C(C)C)C(=O)N1CCC[C@H]1C(=O)N[C@@H](CCCCN)C(=O)O [Epitope P48] (H-TVNAHQVLPK-OH; N-terminus and C-terminus assumed)	%	9.5
CC[C@H](C)[C@H](NC(=O)[C@H](CC(C)C)NC(=O)[C@H](CS)NC(=O)[C@H](CC(C)C)NC(=O)[C@H](Cc1c[nH]cn1)NC(=O)[C@H](Cc1ccccc1)NC(=O)[C@H](CC(C)C)NC(=O)[C@H](CCC(N)=O)NC(=O)[C@@H](N)CCSC)C(=O)O [Epitope P66] (H-MQLFHLCLI-OH; N-terminus and C-terminus assumed)	%	70.1
CC[C@H](C)[C@H](NC(=O)[C@H](CO)NC(=O)[C@H](Cc1ccc(O)cc1)NC(=O)[C@@H](N)CC(C)C)C(=O)N[C@@H](CC(C)C)C(=O)N[C@@H](CO)C(=O)N1CCC[C@H]1C(=O)N[C@@H](Cc1ccccc1)C(=O)N[C@@H](CC(C)C)C(=O)O [Epitope P19] (H-LYSILSPFL-OH; N-terminus and C-terminus assumed)	%	3.6

----------
Molecular target: HLA-A1101 (Homo sapiens, UniProt P04439, A114D/D185E/E176A/F33Y/L180Q/S129P/T187R)
Construct: expressed in transfected cells; host or cells: HMy2.CIR
Experiment: cell-based
Type: binding
Conditions: HLA-A1101 HMy2.CIR cells; competitor peptide 5μM; 24 hours; flow cytometry; read-out: 5μM Inhibition (%)
Residues, ends and D or L forms follow the SMILES beside them.
Label False if inhibition at 5 µM falls below 80%; label True in every other case.

MOLECULE	TARGET_OR_SYSTEM	GROUP_LABEL
CC(C)C[C@H](NC(=O)[C@H](CO)NC(=O)[C@H](Cc1ccccc1)NC(=O)[C@H](Cc1ccccc1)NC(=O)CNC(=O)[C@H](C)NC(=O)[C@H](CCC(N)=O)NC(=O)[C@@H](N)CC(C)C)C(=O)N[C@H](C(=O)N[C@@H](CCCCN)C(=O)O)[C@@H](C)O [Epitope P103] (H-LQAGFFSLTK-OH; N-terminus and C-terminus assumed)	HLA-A1101 (Homo sapiens, UniProt P04439, A114D/D185E/E176A/F33Y/L180Q/S129P/T187R)	True
CC(C)C[C@H](NC(=O)[C@H](CC(C)C)NC(=O)[C@@H](N)Cc1ccccc1)C(=O)N[C@@H](C)C(=O)N[C@@H](CCC(N)=O)C(=O)N[C@@H](Cc1ccccc1)C(=O)N[C@H](C(=O)N[C@@H](CO)C(=O)N[C@@H](C)C(=O)O)[C@@H](C)O [Epitope P76]	HLA-A1101 (Homo sapiens, UniProt P04439, A114D/D185E/E176A/F33Y/L180Q/S129P/T187R)	False
CC(C)C[C@H](NC(=O)[C@H](CCC(=O)O)NC(=O)[C@H](CCC(=O)O)NC(=O)[C@H](Cc1c[nH]c2ccccc12)NC(=O)[C@H](CC(=O)O)NC(=O)[C@H](CCCCN)NC(=O)[C@H](Cc1ccccc1)NC(=O)[C@H](CC(C)C)NC(=O)[C@@H](N)CS)C(=O)O [Epitope P12] (H-CLFKDWEEL-OH; N-terminus and C-terminus assumed)	HLA-A1101 (Homo sapiens, UniProt P04439, A114D/D185E/E176A/F33Y/L180Q/S129P/T187R)	False
CC(C)C[C@H](NC(=O)[C@H](CC(=O)O)NC(=O)[C@@H](NC(=O)[C@@H](NC(=O)[C@@H](N)CO)[C@@H](C)O)[C@@H](C)O)C(=O)N[C@@H](CCC(=O)O)C(=O)N[C@@H](C)C(=O)N[C@@H](Cc1ccc(O)cc1)C(=O)N[C@@H](Cc1ccccc1)C(=O)N[C@@H](CCCCN)C(=O)O [Epitope P18]	HLA-A1101 (Homo sapiens, UniProt P04439, A114D/D185E/E176A/F33Y/L180Q/S129P/T187R)	False
CC(C)C[C@H](NC(=O)[C@@H](NC(=O)[C@H](CCC(N)=O)NC(=O)[C@H](Cc1c[nH]cn1)NC(=O)[C@H](C)NC(=O)[C@H](CC(N)=O)NC(=O)[C@@H](NC(=O)[C@@H](N)[C@@H](C)O)C(C)C)C(C)C)C(=O)N1CCC[C@H]1C(=O)N[C@@H](CCCCN)C(=O)O [Epitope P48] (H-TVNAHQVLPK-OH; N-terminus and C-terminus assumed)	HLA-A1101 (Homo sapiens, UniProt P04439, A114D/D185E/E176A/F33Y/L180Q/S129P/T187R)	True
